biological target: T1, human TNFα (human, UniProt P01375 77-233); experiment: TNF receptor assay: inhibition of TNF binding to TNFR1-Fc (ELISA)
T1 construct: Coated on plates, coupled to a CM5 chip, or added in solution (10 ng/ml) in the TNF receptor assay; the assay paragraphs often print only 'TNF'; also called TNF alpha; TAR1
T1 sequence (P01375 77-233 limits assumed): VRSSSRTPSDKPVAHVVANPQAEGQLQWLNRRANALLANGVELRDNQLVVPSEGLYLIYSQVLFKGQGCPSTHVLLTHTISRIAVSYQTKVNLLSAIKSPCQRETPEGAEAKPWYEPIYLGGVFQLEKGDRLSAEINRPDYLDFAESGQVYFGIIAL
Each entry below lists one item and its recorded IC50 value.

Binder	IC50
TAR1-5-19 d1 (other, TAR1-5-19 substituted for TAR1-5 in lead clone d1) DIQMTQSPSSLSASVGDRVTITCRASQSIDSYLHWYQQKPGKAPKLLIYSASELQSGVPSRFSGSGSGTDFTLTISSLQPEDFATYYCQQVVWRPFTFGQGTKVEIKRGGGGSGGGGSGGGGSDIQMTQSPSSLSASVGDRVTITCRASQSIYDALEWYQQKPGKAPKLLIYTASRLQSGVPSRFSGSGSGTDFTLTISSLQPEDFATYYCQQVMQRPVTFGQGTKVEIKR	~15 nM
TAR1-5-19 d6 (other) DIQMTQSPSSLSASVGDRVTITCRASQSIDSYLHWYQQKPGKAPKLLIYSASELQSGVPSRFSGSGSGTDFTLTISSLQPEDFATYYCQQVVWRPFTFGQGTKVEIKRGGGGSGGGGSGGGGSGGGGSGGGGSGGGGSGGGGSDIQMTQSPSSLSASVGDRVTITCRASQSIYDALEWYQQKPGKAPKLLIYTASRLQSGVPSRFSGSGSGTDFTLTISSLQPEDFATYYCQQVMQRPVTFGQGTKVEIKR	~10 nM
TAR1-5-19d4 (other, also called TAR1-5-19 dimer 4) DIQMTQSPSSLSASVGDRVTITCRASQSIDSYLHWYQQKPGKAPKLLIYSASELQSGVPSRFSGSGSGTDFTLTISSLQPEDFATYYCQQVVWRPFTFGQGTKVEIKRGGGGSGGGGSGGGGSGGGGSGGGGSDIQMTQSPSSLSASVGDRVTITCRASQSVKEFLWWYQQKPGKAPKLLIYMASNLQSGVPSRFSGSGSGTDFTLTISSLQPEDFATYYCQQKFKLPRTFGQGTKVEIKR	2 to 5 nM
TAR1-5-19d5 (other) DIQMTQSPSSLSASVGDRVTITCRASQSIDSYLHWYQQKPGKAPKLLIYSASELQSGVPSRFSGSGSGTDFTLTISSLQPEDFATYYCQQVVWRPFTFGQGTKVEIKRGGGGSGGGGSGGGGSGGGGSGGGGSDIQMTQSPSSLSASVGDRVTITCRASQSIYDALEWYQQKPGKAPKLLIYTASRLQSGVPSRFSGSGSGTDFTLTISSLQPEDFATYYCQQVMQRPVTFGQGTKVEIKR	~8 nM
